Origin of measurements: ChEMBL document CHEMBL1156873

Reported values: IC50 for Serine/threonine-protein kinase mTOR (Homo sapiens, UniProt P42345), one per item.
Record the value in pM, omitting the unit from your answer.

Below are worked cases with known answers.
O=C(Nc1ccc(-c2nc(N3CC4CCC(C3)O4)c3cnn(C4CCC5(CC4)OCCO5)c3n2)cc1)Nc1cccnc1 = 120
CNC(=O)Nc1ccc(-c2nc(N3CC4CCC(C3)O4)c3cnn([C@H]4CC[C@H](OC)CC4)c3n2)cc1 = 380
CNC(=O)Nc1ccc(-c2nc(N3CC4CCC(C3)O4)c3cnn([C@H]4CC[C@@H](O)CC4)c3n2)cc1 = 300
CNC(=O)Nc1ccc(-c2nc(N3CC4CCC(C3)O4)c3cnn([C@H]4CC[C@H](O)CC4)c3n2)cc1 = 240
O=C(Nc1ccncc1)Nc1ccc(-c2nc(N3CC4CCC(C3)O4)c3cnn(C4CCC5(CC4)OCCO5)c3n2)cc1 = 120
O=C(Nc1ccccc1)Nc1ccc(-c2nc(N3CC4CCC(C3)O4)c3cnn(C4CCC5(CC4)OCCO5)c3n2)cc1 = 160

Which measured IC50 belongs to "CCn1ncc2c(N3CC4CCC(C3)O4)nc(-c3ccc(NC(=O)NC)cc3)nc21" , tested on Serine/threonine-protein kinase mTOR (Homo sapiens, UniProt P42345)?
740

====

Below is a list of entries, each paired with its recorded half-life value.
Assay notes: Half life in nude mouse microsomes
Format: ADME, Microsome

Sample answers from the record:
CNC(=O)Nc1ccc(-c2nc(N3CC4CCC(C3)O4)c3cnn([C@H]4CC[C@@H](O)CC4)c3n2)cc1 = > 30 min
CNC(=O)Nc1ccc(-c2nc(N3CC4CCC(C3)O4)c3cnn(C4CCN(C(=O)OC)CC4)c3n2)cc1 = > 30 min
CNC(=O)Nc1ccc(-c2nc(N3CC4CCC(C3)O4)c3cnn(C4CCC(=O)CC4)c3n2)cc1 = 20 min
O=C(Nc1ccc(-c2nc(N3CC4CCC(C3)O4)c3cnn(C4CCC5(CC4)OCCO5)c3n2)cc1)NC1CC1 = 25 min
CNC(=O)Nc1ccc(-c2nc(N3CC4CCC(C3)O4)c3cnn(C4CCC5(CC4)OCCO5)c3n2)cc1 = > 30 min
O=C(Nc1ccccc1)Nc1ccc(-c2nc(N3CC4CCC(C3)O4)c3cnn(C4CCC5(CC4)OCCO5)c3n2)cc1 = > 30 min

Which measured half-life value corresponds to "CNC(=O)Nc1ccc(-c2nc(N3CC4CCC(C3)O4)c3cnn([C@H]4CC[C@H](OC)CC4)c3n2)cc1" ?
> 30 min

What value of half-life has been reported for the following molecule? "CNC(=O)Nc1ccc(-c2nc(N3CC4CCC(C3)O4)c3cnn(C4CCN(C(=O)OC(C)C)CC4)c3n2)cc1"
21 min

====

Assay notes: Half life in human microsomes
Type: ADME, Microsome
Response key: label 1 means half-life >= 20 min; label 0 means half-life < 20 min.

CNC(=O)Nc1ccc(-c2nc(N3CC4CCC(C3)O4)c3cnn(C(C)C)c3n2)cc1 = label 0
O=C(Nc1ccccc1)Nc1ccc(-c2nc(N3CC4CCC(C3)O4)c3cnn(C4CCC5(CC4)OCCO5)c3n2)cc1 = label 0
CNC(=O)Nc1ccc(-c2nc(N3CC4CCC(C3)O4)c3cnn(C4CCC5(CC4)OCCCO5)c3n2)cc1 = label 1

Hello, I need to know if "O=C(NCCF)Nc1ccc(-c2nc(N3CC4CCC(C3)O4)c3cnn(C4CCC5(CC4)OCCO5)c3n2)cc1" has measured half-life not below 20 min. Thanks!
label 0

Check the entry "CNC(=O)Nc1ccc(-c2nc(N3CC4CCC(C3)O4)c3cnn(C4CCC5(CC4)OCCO5)c3n2)cc1" : does half-life equal or exceed 20 min?
label 1
